Conditions: normal mice, oral gavage, 3mg/kg; Kidney; 18h
reported-metric: Drug concentration, time course
// keep it numeric: no unit symbol after the value

Some solved cases for reference:
compound	Drug concentration, time course
Cn1c(=O)cc(N2CCC[C@@H](N)C2)n(Cc2ccccc2C#N)c1=O [Alogliptin, alogliptin]	0
CC1=C(C(=O)O)N2C(=O)[C@@H](NC(=O)[C@H](N)c3ccccc3)[C@H]2SC1 [Cephalexin, cephalexin]	0
N#C[C@@H]1CCCN1C(=O)CNC12CC3CC(CC(O)(C3)C1)C2 [Vildagliptin, vildagliptin]	0

Which measured Drug concentration, time course value corresponds to OC[C@H]1O[C@@H](c2ccc(F)c(Cc3cc4ccccc4s3)c2)[C@H](O)[C@@H](O)[C@@H]1O [Ipragliflozin, ipragliflozin] ?
1500

* * *

Settings: normal mice, oral gavage, 3mg/kg; Kidney; 6h
Drug concentration, time course overview
Give the value as a plain number.

compound	Drug concentration, time course
Cc1ccc([C@@H]2O[C@H](CO)[C@@H](O)[C@H](O)[C@H]2O)cc1Cc1ccc(-c2ccc(F)cc2)s1 [Canagliflozin, canagliflozin]	4300

Entry N#C[C@@H]1CCCN1C(=O)CNC12CC3CC(CC(O)(C3)C1)C2 [Vildagliptin, vildagliptin] : reported Drug concentration, time course = ?
3950

* * *

Here the recorded Total Percent (incidence rate of AKI at the end of the study) is given for each entry.
System: diabetes mellitus patients
Test: Acute kidney injury
Type: in vivo, human
Details: share of the 4966 total outcomes
Dear colleague, please return just the value in %, with no unit written.

molecule	recorded-number
CCOc1ccc(Cc2cc([C@@H]3O[C@H](CO)[C@@H](O)[C@H](O)[C@H]3O)ccc2Cl)cc1	6

Recorded Total Percent (incidence rate of AKI at the end of the study) of CC(C)Cc1ccc(C(C)C(=O)O)cc1 (stereo not drawn) , please.
11.22

Give its Total Percent (incidence rate of AKI at the end of the study) value. Item: COc1ccc2c(c1)c(CC(=O)O)c(C)n2C(=O)c1ccc(Cl)cc1
10.01

* * *

Conditions: normal mice, oral gavage, 3mg/kg; Kidney; 15h
Mark each entry YES if its Drug concentration, time course sits below 60, and NO for all others.

compound	class
Cc1ccc([C@@H]2O[C@H](CO)[C@@H](O)[C@H](O)[C@H]2O)cc1Cc1ccc(-c2ccc(F)cc2)s1	YES
CC(C)Cc1ccc(C(C)C(=O)O)cc1 (stereo not drawn)	NO
CC#CCn1c(N2CCC[C@@H](N)C2)nc2c1c(=O)n(Cc1nc(C)c3ccccc3n1)c(=O)n2C	NO
CC1=C(C(=O)O)N2C(=O)[C@@H](NC(=O)[C@H](N)c3ccccc3)[C@H]2SC1	YES

Hello, is Drug concentration, time course of the following compound strictly smaller than 60? OC[C@H]1O[C@@H](c2ccc(Cl)c(Cc3ccc(O[C@H]4CCOC4)cc3)c2)[C@H](O)[C@@H](O)[C@@H]1O
YES

* * *

Test system: diabetes mellitus patients
Assay: Acute kidney injury
Assay type: in vivo, human
Details: secondary endpoint, after 90 days of hospital admission
reported-metric: Events at secondary end (AKI)
Answer as a number with no unit attached.

Reference set, count: 2
compound	Events at secondary end (AKI)
CC#CCn1c(N2CCC[C@@H](N)C2)nc2c1c(=O)n(Cc1nc(C)c3ccccc3n1)c(=O)n2C [Linagliptin, linagliptin]	228
Cn1c(=O)cc(N2CCC[C@@H](N)C2)n(Cc2ccccc2C#N)c1=O [Alogliptin, alogliptin]	273

As a next step, examine the compound that follows.
Need Events at secondary end (AKI) of CCOc1ccc(Cc2cc([C@@H]3O[C@H](CO)[C@@H](O)[C@H](O)[C@H]3O)ccc2Cl)cc1 [Dapagliflozin, dapagliflozin] , thanks.
225
